target: Sonic hedgehog protein (Mus musculus, UniProt Q62226); test: Inhibition of SHH pathway in mouse Shh Light2 cells after 40 hrs by Gli-dependent luciferase reporter gene assay
Sequence (Q62226 25-198 limits assumed): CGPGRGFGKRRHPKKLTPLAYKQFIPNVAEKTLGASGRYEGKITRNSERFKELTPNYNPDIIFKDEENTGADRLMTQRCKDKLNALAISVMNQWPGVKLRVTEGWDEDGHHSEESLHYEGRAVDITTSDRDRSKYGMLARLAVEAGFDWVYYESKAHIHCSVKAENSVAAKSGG
Parameter IC50: see the listing below.
Express it in µM; write the number only.

Guide cases for IC50, answers given:
COc1cccc(CN(C(=O)CC(C)(C)C)[C@H]2C[C@@H](C(=O)N3CCNCC3)N(Cc3ccc4c(c3)OCO4)C2)c1
0.1
C[C@H]([C@@H]1CCCCN1)[C@H]1CC[C@H]2[C@@H]3CC=C4C[C@@H](O)CC[C@]4(C)[C@H]3CC[C@]12C [DESMETHYLVERAMILINE]
1.1

Let us examine a further case.
Recorded IC50 of CC1=C2C[C@H]3[C@@H](CC=C4C[C@@H](O)CC[C@@]43C)[C@@H]2CC[C@]12O[C@@H]1C[C@H](C)CN[C@H]1[C@H]2C [CYCLOPAMINE] , please.
0.3
